Origin of the recorded values: patent US12624028B2

Exercise: state measured pEC50 for each of the molecules provided.
# MEASURED_ON: NL20 human bronchial epithelial cells expressing human Z-AAT (Homo sapiens, UniProt P01009, E366K)
# Construct: expressed in transfected cells; host or cells: NL20 human bronchial epithelial cells (NL20-SI line
# Sequence (P01009 25-418 E366K): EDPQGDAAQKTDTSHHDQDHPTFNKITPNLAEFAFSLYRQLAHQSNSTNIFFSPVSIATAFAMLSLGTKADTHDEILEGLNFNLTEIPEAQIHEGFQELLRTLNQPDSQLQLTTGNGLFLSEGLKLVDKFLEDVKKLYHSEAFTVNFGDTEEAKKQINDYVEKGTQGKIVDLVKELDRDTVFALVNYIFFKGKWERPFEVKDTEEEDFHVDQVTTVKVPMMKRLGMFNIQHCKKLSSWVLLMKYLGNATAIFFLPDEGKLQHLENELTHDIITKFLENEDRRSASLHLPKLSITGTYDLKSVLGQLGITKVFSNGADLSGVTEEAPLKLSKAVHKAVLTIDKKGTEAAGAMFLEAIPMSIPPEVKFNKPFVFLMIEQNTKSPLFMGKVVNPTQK
# ASSAY_NAME: AAT Function Assay (MSD Assay NL20-SI Cell Line)
# Format: cell-based
# EXPERIMENTAL_SETUP: functionally active AAT (AAT-hNE complex, MSD) from NL20 cells expressing human Z-AAT; read-out: NL20 Functional EC50
pEC50: −log10 of the molar value.

# example entries with known answers
1) Cc1c2nc(C(C)CC(=O)O)c(C(C)C)c(-c3ccc(F)cc3)c2cc2cn[nH]c12 (stereo not drawn) [Compound 182]; > 5.94
2) CC(C)Oc1c(-c2ccc(C(=O)O)c(F)c2)nc2cc3[nH]ncc3cc2c1-c1ccc(F)cc1 [Compound 249]; 5.52 to 5.94

# context switch: different molecule, same pEC50
I would be grateful if you could share the reported pEC50 for Cc1c2nc(Cl)c(C(C)C)c(-c3ccc(F)cc3)c2cc2cn[nH]c12 [Compound 186] .
< 5.52
